assay: LC retention time (Atlantis T3, 5-95% MeOH gradient, 0.1% formic acid); higher = more retained / less polar
Recorded LC retention time by entry
Field: numeric (min). Do not append units.

Consider the following illustrative entries.
molecule	units-symbol	LC retention time
COC(=O)C1C(OC(=O)c2ccccc2)CC2CCC1[NH+]2C (centres undefined)	min	12.2
C#CC[NH+](C)Cc1ccccc1	min	11.4
COc1nc(C)nc(N)n1	min	9.03
O=c1[nH]c2c(c(=O)n1C1CCCCC1)CCC2	min	18.6
COC(=O)Nc1nc2ccccc2[nH]1	min	10.8

Quick one: LC retention time for N#CC1CCCN1C(=O)C[NH2+]C12CC3CC(CC(O)(C3)C1)C2 (centres undefined) ?
8.73

Here is the next molecule: "N#Cc1nn(-c2c(Cl)cc(C(F)(F)F)cc2Cl)c(N)c1C(F)(F)F"
20.2

Here is the next molecule: "Cc1cc(O)nc(C(C)C)n1"
11.8

Here is the next molecule: "Cc1cccc(C)c1N(Cn1cccn1)C(=O)C(=O)[O-]"
17.1

Here is the next molecule: "Cn1c(=O)c2c(ncn2C)n(C)c1=O"
12.5

---

test: absolute recovery over mixed-bed multilayer solid-phase extraction; higher = better recovery; details: nanopure water; enrichment method: SPE
Recorded absolute recovery by entry
Field: numeric (%). Do not append units.

compound	absolute recovery, %
[NH3+]C12CC3CC(CC(C3)C1)C2	90.7
CC1(C(=O)[O-])CCC2(C)CCC3(C)C(=CC(=O)C4C5(C)CCC(O)C(C)(C)C5CCC43C)C2C1 (stereo unspecified)	90.6
C=C1CC2C(CCC3(C)C(=O)CCC23)C2(C)C=CC(=O)C=C12 (stereo unspecified)	91.6
CC(C)(C)Nc1nc(N)nc(Cl)n1	88.2
C[NH+]1CCN2c3ccccc3Cc3ccccc3C2C1 (stereo unspecified)	90.1

Quick one: absolute recovery for CCCC[NH+]1CCCCC1C(=O)Nc1c(C)cccc1C (stereo unspecified) ?
92

---

assay: absolute recovery over vacuum-assisted evaporative concentration; higher = better recovery; conditions: wastewater influent; enrichment method: VEC
property: absolute recovery

Consider the following illustrative entries.
molecule	property	result
CCC(=O)OC(OP(=O)(CCCCc1ccccc1)CC(=O)N1CC(C2CCCCC2)CC1C(=O)[O-])C(C)C (configuration not stated)	absolute recovery	36.6%
O=C1Nc2ccc(Cl)cc2C(c2ccccc2)=NC1O (configuration not stated)	absolute recovery	98.7%
NC(=O)N1c2ccccc2CC(=O)c2ccccc21 [Oxcarbazepin]	absolute recovery	78.5%
CCC(C)C(=O)OC1CC(O)C=C2C=CC(C)C(CCC(O)CC(O)CC(=O)[O-])C21 (configuration not stated)	absolute recovery	103%
COCCN(C(=O)C(=O)[O-])c1c(C)cccc1C	absolute recovery	107%
Nc1nc(N)[nH+]c(NC2CC2)n1	absolute recovery	104%

Quick one: absolute recovery for CC1COC(Cn2cncn2)(c2ccc(Oc3ccc(Cl)cc3)cc2Cl)O1 (configuration not stated) ?
126%

---

experiment: absolute recovery over mixed-bed multilayer solid-phase extraction; higher = better recovery; conditions: nanopure water; enrichment method: SPE
property: absolute recovery (%)
Field: numeric (%). Do not append units.

Consider the following illustrative entries.
compound	absolute recovery, %
C[NH+](C)CCOC(c1ccccc1)c1ccccc1 [Diphenhydramine]	88.9
NC(=O)N1c2ccccc2CC(=O)c2ccccc21 [Oxcarbazepin]	84.4

Quick one: absolute recovery for CNC(=O)CSP(=S)(OC)OC [Dimethoat] ?
93.4

Here is the next compound: C[NH2+]C(C)Cc1ccccc1 (stereo not given) [Methamphetamin]
92.5

Here is the next compound: NS(=O)(=O)c1cc2c(cc1Cl)NCNS2(=O)=O [Hydrochlorothiazid]
96.7

Here is the next compound: O=C1C(Cl)C(CCl)CN1c1cccc(C(F)(F)F)c1 (stereo not given) [Flurochloridon]
98.1

Here is the next compound: CCOc1cc(Oc2ccc(C(F)(F)F)cc2Cl)ccc1[N+](=O)[O-] [Oxyfluorfen]
93.8
